Test system: CP266
run-description: qHTS profiling for inhibitors of Plasmodium falciparum proliferation (AID 504749); further: nearly all actives have a fitted effect of over 60% in size
condition-context: P. falciparum in erythrocytes, SYBR Green DNA, 72 h; series mostly up to 28.7 µM
Results filed as inconclusive are left out. Active and inactive are the calls of the source. The call rests on the fitted dose curve; in most records, active means well fitted inhibition curve with a large enough effect; inconclusive means small, poorly fitted or top-dose-only effect; inactive means flat fitted curve, though single readings scatter. Peptide text beside a SMILES is read from it.
Outcomes: active, inactive

• Cc1cn([C@H]2C[C@H](O)[C@@H](CO)O2)c(=O)[nH]c1=O = inactive
• CC(O)CO (centres undefined) = inactive
• CC(Cc1ccc(O)c(O)c1)C(C)Cc1ccc(O)c(O)c1 (centres undefined) = inactive
• COC(=O)[C@H]1[C@H]2C[C@@H]3c4[nH]c5ccccc5c4CCN3C[C@H]2C[C@@H](OC(=O)c2cc(OC)c(OC)c(OC)c2)[C@@H]1OC = active
• C=C1C(=CC=C2CCC[C@@]3(C)[C@@H]2CC[C@H]3[C@H](C)CCCC(C)C)C[C@@H](O)C[C@@H]1O = inactive
• C[C@H]1C[C@H]2[C@@H]3CCC4=CC(=O)C=C[C@]4(C)[C@@]3(F)[C@@H](O)C[C@]2(C)[C@@]1(O)C(=O)CO = inactive
• CCCCC(=O)O[C@]1(C(=O)CO)[C@H](C)C[C@H]2[C@@H]3CCC4=CC(=O)C=C[C@]4(C)[C@@]3(F)[C@@H](O)C[C@@]21C = inactive
• CCCCCCC(O)C/C=C/CCCCCCCC(=O)O (centres undefined) = inactive
• CCOC(C)=O = inactive
• CC(=O)N[C@@H](CC(=O)O)C(=O)N[C@@H](CCC(=O)O)C(=O)O (Ac-Asp-Glu-OH) = inactive
• CCCCCCCC/C=C\CCCCCCCC(=O)O = inactive
• Cc1c(C)c2c(c(C)c1O)CC[C@@](C)(CCC[C@@H](C)CCC[C@@H](C)CCCC(C)C)O2 = inactive
• CC(NNC(=O)c1ccccc1)c1ccccc1 (centres undefined) = inactive
• CCN(CC)CCOc1ccc(-c2nc3cc(Cl)ccc3s2)cc1 = inactive

* * *

Tested on: Tov-21-G
run-description: Primary qHTS to identify gynecologic anti-cancer compounds using libraries of approved drugs and bioactive compounds (AID 1345084); further: on the % scale 0 is the no-effect control and ±100 the full control effect; nearly all actives have a fitted effect of over 55% in size
condition-context: Gynecologic cancer cell panel viability, ATPlite luminescence, 48 h; series mostly up to 57.5 µM
Records with an inconclusive call do not appear. The source made the active and inactive calls. Calls come from the whole dose curve; as a rule, active = well fitted cell-killing curve with a large enough effect; inconclusive = small, poorly fitted or top-dose-only effect, or effect the other way; inactive = flat fitted curve, though single readings scatter.
readout-kind: activity change, negative = cytotoxicity

- CCNC(=O)[C@H]1O[C@H](n2cnc3c(NCC(c4ccccc4)c4ccccc4)nc(C(=O)NCCNC(=O)NC4CCN(c5ccccn5)CC4)nc32)[C@H](O)[C@@H]1O: inactive
- CC(=O)[C@@H]1CC[C@]2(C(=O)O)CC[C@]3(C)C(CCC4[C@@]5(C)CC[C@H](O)C(C)(C)C5CC[C@]43C)C12 (some centres undefined): inactive
- CN1CCC(c2c[nH]c3ccc(NC(=O)c4ccc(F)cc4)cc23)CC1: inactive
- CCOc1nc2cccc(C(=O)O)c2n1Cc1ccc(-c2ccccc2-c2noc(=O)[nH]2)cc1: inactive
- COc1cc(CC(COC2OC(CO)C(O)C(O)C2O)c2cc(/C=C/CO)cc(OC)c2O)ccc1O (centres undefined): inactive
- C[C@@H]1O[C@@H](O[C@H]2[C@H](O[C@H]3[C@H](O[C@H]4CC[C@@]5(C)C(CC[C@]6(C)C5CC=C5[C@@H]7CC(C)(C(=O)O)C[C@@H](O)[C@]7(C)CC[C@]56C)[C@@]4(C)CO)O[C@H](C(=O)O)[C@@H](O)[C@@H]3O)O[C@H](CO)[C@H](O)[C@@H]2O)[C@H](O)[C@H](O)[C@H]1O (some centres undefined): 6.81% [at 11.6 µM] (inactive)
- C[C@@H]1CC[C@]2(C(=O)O)CC[C@]3(C(=O)O)C(=CCC4[C@@]5(C)CC[C@H](O[C@@H]6O[C@@H](C)[C@H](O[C@@H]7O[C@H](CO)[C@@H](O)[C@H](O)[C@H]7O)[C@@H](O)[C@H]6O)C(C)(C)C5CC[C@]43C)C2[C@H]1C (some centres undefined): inactive
- COC(=O)C1=COC(OC2OC(CO)C(O)C(O)C2O)C2C1CC(OC(=O)C(O)CC(=O)O)C2C (centres undefined): inactive
- O=c1ccn(C2OC(CO)C(O)C2O)c(=O)[nH]1 (centres undefined): inactive
- O=C(/C=C/c1ccc(O)cc1)O[C@H]1[C@@H]2C=CO[C@@H](O[C@@H]3O[C@H](CO)[C@@H](O)[C@H](O)[C@H]3O)[C@@H]2[C@@]2(CO)O[C@@H]12: inactive
- CCN[C@@H]1C[C@H](N)[C@@H](O[C@H]2OC(CN)=CC[C@H]2N)[C@H](O)[C@H]1O[C@H]1OC[C@](C)(O)[C@H](NC)[C@H]1O: inactive
- COc1cc(/C=C/C(=O)OC2CC(C)=C(C(=O)O)/C2=C/CO[C@@H]2O[C@H](CO)[C@@H](O)[C@H](O)[C@H]2O)ccc1O (some centres undefined): inactive
- C[C@H]1[C@H](C)CC[C@]2(C(=O)O)CC[C@]3(C)C(=CC[C@@H]4[C@@]5(C)C[C@@H](O)[C@H](O)[C@@](C)(CO)[C@@H]5CC[C@]43C)[C@H]12: inactive
- C/C(=C\CO)CC/C=C(\C)C(=O)O[C@H]1[C@H](OC2OC=C(C(=O)O)C3CCC(C)(O)C23)O[C@H](CO)[C@@H](O)[C@@H]1O (some centres undefined): inactive
